# System: Candida albicans
# assay.summary: Antifungal activity against Candida albicans ATCC 90028 after 18 to 24 hrs by micro-dilution metho
# Assay type: functional
attribute.measured: MIC

{"columns": ["query.smiles", "MIC"],
 "data": [
  ["CCc1ccc(-n2cc(CN(Cc3cn(-c4ccc(CC)cc4)nn3)c3nc4ccccc4s3)nn2)cc1", "> 100 µg/mL"],
  ["OC(Cn1cncn1)(Cn1cncn1)c1ccc(F)cc1F", "1.56 µg/mL"],
  ["FC(F)(F)Oc1ccc(-n2cc(CN(Cc3cn(-c4ccc(OC(F)(F)F)cc4)nn3)c3nc4ccccc4s3)nn2)cc1", "3.12 µg/mL"]
]}

Problem: Entry CCCCCc1ccc(-n2cc(CN(Cc3cn(-c4ccc(CCCCC)cc4)nn3)c3nc4ccccc4s3)nn2)cc1 needs its MIC filled in; supply it.
Solution: > 100 µg/mL

Problem: Entry Brc1ccc(-n2cc(CN(Cc3cn(-c4ccc(Br)cc4)nn3)c3nc4ccccc4s3)nn2)cc1 needs its MIC filled in; supply it.
Solution: 6.25 µg/mL

Problem: Entry Fc1ccccc1-n1cc(CN(Cc2cn(-c3ccccc3F)nn2)c2nc3ccccc3s2)nn1 needs its MIC filled in; supply it.
Solution: > 100 µg/mL

Problem: Entry Fc1ccc(-n2cc(CN(Cc3cn(-c4ccc(F)cc4F)nn3)c3nc4ccccc4s3)nn2)c(F)c1 needs its MIC filled in; supply it.
Solution: > 100 µg/mL

Problem: Entry Cc1ccc(-n2cc(CN(Cc3cn(-c4ccc(C)c(C)c4)nn3)c3nc4ccccc4s3)nn2)cc1C needs its MIC filled in; supply it.
Solution: > 100 µg/mL
